biological target: IRAK3-ePL (Homo sapiens); construct: expressed in transfected cells; host or cells: 293T CRBN OE/GSPT1 G575N KI cells, lentiviral transduction, puromycin selected; experiment: IRAK3-ePL overexpressing degradation assay (InCELL Hunter luminescence, dose response); assay type: cell-based; conditions: read-out: IRAK3 ePL degradation EC50
Reported property: DC50 (nM)

// worked examples, DC50 included
Cc1cc(-c2cnc(Nc3cnn([C@H]4CC[C@H](CCN5CCN(c6ccc([C@@]7(C)CCC(=O)NC7=O)cc6)CC5)CC4)c3)c3nccn23)c(F)cc1F [Compound 81]    3.3
Cc1cc(-c2cnc(Nc3cnn(C4CCN(CCN5CCN(c6ccc(C7CCC(=O)NC7=O)c(Cl)c6)CC5)CC4)c3)c3nccn23)c(F)cc1F (stereo not drawn) [Compound 54]    10
Cc1cc(-c2cnc(Nc3cnn(C4CCN(CCN5[C@H](C)CN(c6ccc(C7CCC(=O)NC7=O)cc6)C[C@H]5C)CC4)c3)c3nccn23)c(F)cc1F (stereo partly drawn) [Compound 58]    0.98
Cc1cccc(-c2cnc(Nc3cnn(C4CCN(CC(=O)N5CCN(c6ccc7c(c6)CN(C6CCC(=O)NC6=O)C7=O)CC5)CC4)c3)c3nccn23)c1 (stereo not drawn) [Compound 19]    12
Cc1cc(-c2cnc(Nc3cnn(C4CCN(CCN5CCN(c6ccc(C7CCC(=O)NC7=O)cc6)CC5)CC4)c3)c3nccn23)ccc1F (stereo not drawn) [Compound 33]    7.9
Cc1cc(-c2cnc(Nc3cnn([C@H]4CCN(CCN5CCN(c6ccc(C7CCC(=O)NC7=O)cc6)CC5)C[C@H]4F)c3)c3nccn23)c(F)cc1F (stereo partly drawn) [Compound 63]    0.51

A. CN1CCOc2ccc(-c3cnc(Nc4cnn([C@H]5CC[C@H](CCN6CCN(c7ccc(C8CCC(=O)NC8=O)cc7)CC6)CC5)c4)c4nccn34)cc21 (stereo partly drawn) [Compound 40]
B. Cc1cccc(-c2cnc(Nc3cnn(C4CCN(CCCCN5CCN(c6ccc(C7CCC(=O)NC7=O)cc6)CC5)CC4)c3)c3nccn23)c1 (stereo not drawn) [Compound 3]
C. Cc1cccc(-c2cnc(Nc3cnn(C4CCN(CC(=O)N5CCN(c6ccc7c(c6)C(=O)N(C6CCC(=O)NC6=O)C7)CC5)CC4)c3)c3nccn23)c1 (stereo not drawn) [Compound 16]
Order the 3 compounds from highest to lowest DC50. Please list the labels according to the requested order.
C, B, A

A. Cc1cc(-c2cnc(Nc3cnn([C@H]4CCN(CCN5CCN(c6ccc(C7CCC(=O)NC7=O)cc6)C[C@@H]5C)[C@@H](C)C4)c3)c3nccn23)c(F)cc1F (stereo partly drawn) [Compound 34]
B. Cc1cc(-c2cnc(Nc3cnn(C4CCN(CCN5CCN(c6ccc(C7CCC(=O)N(C)C7=O)cc6)CC5)CC4)c3)c3nccn23)c(F)cc1F (stereo not drawn) [Compound 55]
Problem: Given the entries A and B , determine which has the lower reported DC50. API: response body contains the label of the selected item.
A
(A: 1.7 nM, B: 1100 nM)

---

target: IRAK3-ePL (Homo sapiens, UniProt Q9Y616); construct: expressed in transfected cells; host or cells: 293T CRBN OE/GSPT1 G575N KI cells, lentiviral transduction, puromycin selected; experiment: IRAK3-ePL overexpressing degradation assay (InCELL Hunter luminescence, dose response); format: cell-based; details: read-out: IRAK3 ePL degradation EC50
Sequence (Q96SW2 whole entry partner, one chain of several): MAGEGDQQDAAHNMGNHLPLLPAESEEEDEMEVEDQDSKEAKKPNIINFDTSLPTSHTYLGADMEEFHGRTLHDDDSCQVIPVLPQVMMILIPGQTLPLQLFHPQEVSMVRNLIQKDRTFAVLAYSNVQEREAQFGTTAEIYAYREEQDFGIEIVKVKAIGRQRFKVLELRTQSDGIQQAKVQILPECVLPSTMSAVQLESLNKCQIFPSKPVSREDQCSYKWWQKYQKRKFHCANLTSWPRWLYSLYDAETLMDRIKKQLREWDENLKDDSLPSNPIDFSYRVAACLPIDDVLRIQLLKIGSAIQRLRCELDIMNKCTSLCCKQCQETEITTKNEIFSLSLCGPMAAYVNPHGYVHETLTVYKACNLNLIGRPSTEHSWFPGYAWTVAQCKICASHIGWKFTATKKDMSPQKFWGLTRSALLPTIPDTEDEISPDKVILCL
Reported property: DC50 (nM)

Cc1cc(-c2cnc(N[C@@H]3CCN(C4CCN(CCN5CCN(c6ccc(C7CCC(=O)NC7=O)cc6)CC5)CC4)C3)c3nccn23)c(F)cc1F (stereo partly shown)    0.51
Cc1cc(-c2cnc(Nc3cnn([C@@H]4CCN(CCN5CCN(c6ccc(C7CCC(=O)NC7=O)cc6)C[C@@H]5C)[C@H](C)C4)c3)c3nccn23)c(F)cc1F (stereo partly shown)    0.51
O=C1CCC(c2ccc(N3CCN(CCN4CCC(n5cc(Nc6ncc(-c7ccc8c(c7)NC(=O)CO8)n7ccnc67)cn5)CC4)CC3)cc2)C(=O)N1 (stereo not shown)    0.51
Cc1cccc(-c2cnc(Nc3cnn(C4CCN(CCN5CCN(c6ccc(C7CCC(=O)NC7=O)cc6)CC5)CC4)c3)c3nccn23)c1 (stereo not shown)    1

I. O=C1CCC(c2ccc(N3CCN(CCN4CCC(n5cc(Nc6ncc(-c7ccccc7F)n7ccnc67)cn5)CC4)CC3)cc2)C(=O)N1 (stereo not shown)
II. C[C@H]1CN(c2ccc(C3CCC(=O)NC3=O)cc2)CCN1CCN1CCC(n2cc(Nc3ncc(C4CC4)n4ccnc34)cn2)CC1 (stereo partly shown)
Which shows the larger DC50 value: I or II ? Provide the label of your selected option as the answer.
I

---

biological target: IRAK3 (Homo sapiens, UniProt Q9Y616); construct: IRAK Endogenous HTRF Degradation Assay; endogenous in cells; experiment: IRAK endogenous HTRF degradation assay (Total-IRAK3 HTRF kit); type: cell-based; conditions: overnight incubation, lowest percentage of protein remaining
Sequence (Q9Y616 whole entry): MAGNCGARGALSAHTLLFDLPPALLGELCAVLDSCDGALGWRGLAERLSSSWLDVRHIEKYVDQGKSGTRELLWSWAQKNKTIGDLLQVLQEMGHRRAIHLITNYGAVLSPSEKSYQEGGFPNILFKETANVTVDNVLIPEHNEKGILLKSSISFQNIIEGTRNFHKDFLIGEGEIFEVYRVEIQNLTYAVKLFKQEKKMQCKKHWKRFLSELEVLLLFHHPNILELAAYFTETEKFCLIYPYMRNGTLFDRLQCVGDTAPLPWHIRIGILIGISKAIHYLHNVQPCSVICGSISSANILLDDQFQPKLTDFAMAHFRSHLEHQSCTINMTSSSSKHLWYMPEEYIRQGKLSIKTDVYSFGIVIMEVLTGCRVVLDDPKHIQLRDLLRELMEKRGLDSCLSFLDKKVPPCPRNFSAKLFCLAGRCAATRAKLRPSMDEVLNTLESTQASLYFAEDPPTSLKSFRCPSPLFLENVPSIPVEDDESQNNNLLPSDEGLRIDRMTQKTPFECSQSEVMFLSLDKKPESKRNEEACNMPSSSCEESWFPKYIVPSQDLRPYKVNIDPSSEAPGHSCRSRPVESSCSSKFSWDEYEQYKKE
Reported property: IRAK3 HTRF degradation Ymin (%)

Reference set (4 entries):
Cc1cccc(-c2cnc(Nc3cnn([C@H]4CC[C@H](CCN5CCN(c6ccc(C7CCC(=O)NC7=O)cc6)CC5)CC4)c3)c3nccn23)c1 (stereo partly drawn)    8.6
Cc1cc(-c2cnc(N(C)c3cnn(C4CCN(CCN5CCN(c6ccc(C7CCC(=O)NC7=O)cc6)CC5)CC4)c3)c3nccn23)c(F)cc1F (stereo not drawn)    74
Cc1cc(-c2cnc(Nc3cnn(C4CCN(CC(=O)N5CCN(c6ccc7c(c6)CN(C6CCC(=O)NC6=O)C7=O)CC5)CC4)c3)c3nccn23)c(F)cc1F (stereo not drawn)    14
Cc1cc(-c2cnc(Nc3cnn(C4CCN(CCN5CCN(c6ccc(C7CCC(=O)NC7=O)cc6)CC5)CC4)c3)c3nccn23)ccc1F (stereo not drawn)    13

a. Cc1cc(-c2cnc(Nc3cnn([C@H]4CC[C@H](CCN5CCN(c6ccc([C@@]7(C)CCC(=O)NC7=O)cc6)CC5)CC4)c3)c3nccn23)c(F)cc1F
b. COc1cc(N2CCN(CCN3CCC(n4cc(Nc5ncc(-c6cc(C)c(F)cc6F)n6ccnc56)cn4)CC3)CC2)ccc1C1CCC(=O)NC1=O (stereo not drawn)
Please state the entry with greater IRAK3 HTRF degradation Ymin among a and b . The response must carry the label of the picked entry.
b

---

biological target: IRAK3-ePL (Homo sapiens); construct: expressed in transfected cells; host or cells: 293T CRBN OE/GSPT1 G575N KI cells, lentiviral transduction, puromycin selected; test: IRAK3-ePL overexpressing degradation assay (InCELL Hunter luminescence, dose response); format: cell-based; settings: read-out: IRAK3 ePL degradation EC50
Reported property: DC50 (nM)

1. Cc1cc(-c2cnc(Nc3cnn(C4CCN(CCN5CCN(c6ccc(C7CCC(=O)NC7=O)cc6)[C@@H](C)C5)CC4)c3)c3nccn23)c(F)cc1F (some centres unmarked)
2. Cc1cc(-c2cnc(Nc3cnn([C@H]4CC[C@@H](CN5CCN(c6ccc(C7CCC(=O)NC7=O)cc6)CC5)CC4)c3)c3nccn23)c(F)cc1F (relative stereo)
Hi there! Just curious which has the higher DC50 between 1 and 2 . Indicate your choice by writing its label.
2
(2: 1.7 nM, 1: 0.97 nM)

---

molecular target: IRAK3 (Homo sapiens, UniProt Q9Y616); construct: IRAK Endogenous HTRF Degradation Assay; endogenous in cells; test: IRAK endogenous HTRF degradation assay (Total-IRAK3 HTRF kit); type: cell-based; conditions: overnight incubation, lowest percentage of protein remaining
Reported property: IRAK3 HTRF degradation Ymin (%)

Worked set:
Cc1cc(-c2cnc(Nc3cnn(C4CCN(C(=O)CN5CCN(c6ccc7c(c6)C(=O)N(C6CCC(=O)NC6=O)C7=O)CC5)CC4)c3)c3nccn23)c(F)cc1F (stereo not drawn)    25
Cc1cc(-c2cnc(Nc3cnn([C@@H]4CCN(CCN5CCN(c6ccc(C7CCC(=O)NC7=O)cc6)C[C@H]5C)[C@H](C)C4)c3)c3nccn23)c(F)cc1F (stereo partly drawn)    14
Cc1cc(-c2cnc(Nc3cnn([C@H]4CCN(CCN5CCN(c6ccc(C7CCC(=O)NC7=O)cc6)C[C@H]5C)[C@@H](C)C4)c3)c3nccn23)c(F)cc1F (stereo partly drawn)    7.6
Cc1cc(-c2cnc(Nc3cnn(C4CCN(CCN5[C@H](C)CN(c6ccc(C7CCC(=O)NC7=O)cc6)C[C@H]5C)CC4)c3)c3nccn23)c(F)cc1F (stereo partly drawn)    9.7
Cc1cc(-c2cnc(N[C@@H]3CCN(C4CCN(CCN5CCN(c6ccc(C7CCC(=O)NC7=O)cc6)CC5)CC4)C3)c3nccn23)c(F)cc1F (stereo partly drawn)    96

A. Cc1cc(-c2cnc(Nc3cnn(C4CCN(CCN5CCN(c6ccc(C7CCC(=O)NC7=O)cc6)CC5)CC4)c3)c3ncc(C)n23)c(F)cc1F (stereo not drawn)
B. Cc1cc(-c2cnc(Nc3cnn([C@H]4CCN(CCN5CCN(c6ccc(C7CCC(=O)NC7=O)cc6)CC5)C[C@H]4F)c3)c3nccn23)c(F)cc1F (stereo partly drawn)
Select the item with the higher value of IRAK3 HTRF degradation Ymin from the options A and B listed. Identify your pick by its label.
A
(A: 20%, B: 8.9%)

1. COc1cc(C2CCC(=O)NC2=O)ccc1N1CCN(CCN2CCC(n3cc(Nc4ncc(-c5cc(C)c(F)cc5F)n5ccnc45)cn3)CC2)CC1 (stereo not drawn)
2. Cc1cccc(-c2cnc(Nc3cnn(C4CCN(CC(=O)N5CCN(c6ccc7c(c6)C(=O)N(C6CCC(=O)NC6=O)C7)CC5)CC4)c3)c3nccn23)c1 (stereo not drawn)
Thinking about recorded IRAK3 HTRF degradation Ymin values, which is higher, 1 or 2 ? State the label of the item chosen.
2
